target-of-assay: T1, full-length spike protein of SARS-CoV-2 (Wuhan strain) (SARS-CoV-2 (Wuhan strain), UniProt P0DTC2 14-1273)
T1 construct: whole, on cells; Expressed in 293T cells
assay-name: ACE2 competition, 293T cells, antibody 4 µg/mL
measurement-label: ACE2 binding (no antibody = 100)
// keep it numeric: no unit symbol after the value

Example entries and their recorded answers appear below.
binder="Ab326 (antibody, V domains shown) VH: EVQLVESGGGVVQPGRSLRLSCAASGFTFSHYPMHWVRQAPGRGLEWVAVISYDGSNQHYVDSVKGRFTISRDNSKNTLYLQMNSLRAEDTAVYFCASLITMIRGVPDYWGQGTLVTVSS VL: DIQMTQSPSSLSASVGDRVTITCRASQSISNYLNWYQQKPGKAPNLLIFAASSLQSGVPSRFSGSGSGTEFTLTISSLQPEDFAAYYCLQTYSTPRTFGQGTRLEIK" measurement_label="ACE2 binding (no antibody = 100)" result_number=0.2
binder="Ab287 (antibody, V domains shown) VH: QVQLVQSGAEVKKPGSSVKVSCKASGDTFSSYAISWVRQAPGQGLEWMGRIILIFGVANYAQKFQGRVTITADKSTSTAYMELSSLRSEDTAVYYCARGGFYYDSSGYHLDYWGQGTLVTVSS VL: EIVLTQSPGTLSLSPGERATLSCRPSQSVSSSYLAWYQQRPGQAPRLLIYGASSRATGIPDRFSGSGSGTDFTLTISRLEPEDFAVYYCHQYGSSPRTFGQGTKVEIK" measurement_label="ACE2 binding (no antibody = 100)" result_number=0.5

Prompt line: Could you tell me which ACE2 binding (no antibody = 100) is on file for Ab445 (antibody, V domains shown) VH: EVQLVESGGGVVQPGTSPRLSCAASGFTFSNSGMHWVRQAPGKGLEWVAVIWYDGSKKYYVDSVKGRFTISRDNSKNTLYLQMNSLRAEDTAVYYCARDGTVAVRGVMNPFFDYWGQGTLVTVSS VL: DIQLTQSPSSLSASVGDRVTITCQASQDISNYLNWYQQIPGKAPKLLIYDASNLETGVPSRFSGSGSGTDFTFTISSLQPEDIATYYCQQYDNLPYTFGQGTKLEIK ?
Response line: 0.4
